Source listed as PubChem BioAssay (NCI).

- Tested on: SK-MEL-5 melanoma
- Assay text: NCI-60 one-dose screen, 48 h (100 = growth as untreated, 0 = no growth, -100 = all killed)
- Applied conditions: 10 µM unless noted
The panel holds about 83,000 compounds, 20% with a hit somewhere; the sample as a whole holds those more often.
Give growth for every item shown.
Field format: number, assumed %, no unit text.

(Q) Fill in: growth of CS(=O)(=O)c1ccc2c(c1)c1c(n2Cc2ccc(Cl)cc2)CCCC1 is ___
(A) 82.4

(Q) Return reported growth; argument: O=C(Nc1cc(F)cc2cccnc12)c1cnc(N2CCOCC2)cn1
(A) 83.5

(Q) Endpoint output: growth of O=S(=O)(Nc1cc(Cl)cc(Cl)c1)c1ccc(-c2cnc(C3CC3)o2)cc1 . Value?
(A) 36.9

(Q) Consider the compound shown here: O=C1c2c(c3c4cccnc4[nH]c3c3ccc4ccccc4c23)C(=O)N1CCN1CCNCC1 What is its recorded growth?
(A) 91.7

(Q) For the compound shown here, CS(=O)(=O)c1nccc(-c2c(-c3ccc(F)c(OCCc4ccccc4)c3)nc3sccn23)n1 , give the reported growth.
(A) 98

(Q) growth lookup needed for CC(C)(C)CC(C)(C)n1nnnc1C(Nc1ccccc1)c1cc2cccc3ccc4cccc1c4c32 (stereo not drawn) , thanks.
(A) 89.6

(Q) Give the measured growth of CS(=O)(=O)c1nccc(-c2c(-c3ccc(F)c(OCCc4ccc(F)cc4)c3)nc3sccn23)n1 .
(A) 92.1

(Q) I have this compound here, CCN1C(=O)N(CC)C2SC(N/N=C/C=C/c3ccccc3OC)=NC21 (stereo not drawn) , and I need its recorded growth.
(A) 13.2

(Q) Quick check: growth of C/C(=C(/C)C1CC1CCN(C(=O)c1ccccn1)S(=O)(=O)c1ccc(C)cc1)C1CCCCC1 (stereo not drawn) ?
(A) 78.6

(Q) What measured growth goes with CCN1C/C(=N\S(=O)(=O)c2ccccc2)N(CC)C1=S ?
(A) 102

(Q) What does the data say about its growth? Entry: C#CCOc1ccc(C(Nc2ccc(OC)cc2)c2nnnn2C2CCCCC2)cc1 (stereo not drawn)
(A) 100

(Q) State the recorded growth for this entry: COc1ccc(NC(=O)Cn2cc(CN3C(=O)c4ccc([N+](=O)[O-])cc4C3=O)nn2)cc1
(A) 102

(Q) Query (compound): O=C(CCCCCCN1CC(=O)N2[C@@H](c3ccc(Cl)c(F)c3)c3[nH]c4ccccc4c3C[C@H]2C1=O)NO ; field requested: growth
(A) 86
